Collected set of pKi measured with Estrogen receptor (Homo sapiens, UniProt P03372) across studies.
- tgt: Estrogen receptor (Homo sapiens, UniProt P03372)
- Sequence (P03372 whole entry): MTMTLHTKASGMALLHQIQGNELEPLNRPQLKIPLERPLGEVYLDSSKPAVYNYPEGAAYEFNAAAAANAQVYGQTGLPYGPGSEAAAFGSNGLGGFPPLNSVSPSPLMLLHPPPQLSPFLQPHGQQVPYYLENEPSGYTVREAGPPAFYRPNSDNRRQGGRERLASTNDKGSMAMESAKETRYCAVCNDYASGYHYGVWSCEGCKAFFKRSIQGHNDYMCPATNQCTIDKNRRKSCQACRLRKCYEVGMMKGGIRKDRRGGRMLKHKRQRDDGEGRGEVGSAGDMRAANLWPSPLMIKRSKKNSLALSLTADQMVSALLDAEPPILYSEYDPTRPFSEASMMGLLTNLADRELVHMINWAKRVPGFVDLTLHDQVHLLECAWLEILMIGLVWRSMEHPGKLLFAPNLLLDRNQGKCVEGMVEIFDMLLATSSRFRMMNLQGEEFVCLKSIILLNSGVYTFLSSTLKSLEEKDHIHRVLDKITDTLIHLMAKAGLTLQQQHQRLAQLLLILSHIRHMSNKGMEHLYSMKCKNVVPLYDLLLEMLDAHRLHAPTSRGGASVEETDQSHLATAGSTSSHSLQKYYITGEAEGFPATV
pKi: −log10 of the molar value.
quantity.name: pKi

Field: example entries. Status: answers known.
compound: CN(CCCc1ccc(Cl)cc1)c1nc(NCCc2ccc(O)cc2)nc(N2CCN(C(=O)Nc3ccc(Cl)cc3)CC2)n1
quantity.name: pKi
readout.number: 6.07

compound: CCCNS(=O)(=O)/C=C/c1ccc(C(=C2C3CC4CC(C3)CC2C4)c2ccc(O)cc2)cc1
quantity.name: pKi
readout.number: 9.42

compound: CCc1nc2cc(O)ccc2c(Oc2ccc(/C=C/C(N)=O)cc2)c1-c1ccccc1
quantity.name: pKi
readout.number: 7.80

compound: Oc1ccc(-c2nn3c(C(F)(F)F)cc(C(F)(F)F)nc3c2-c2ccccc2)cc1
quantity.name: pKi
readout.number: 7.29

compound: COC(=O)C(CC1(C)CC2CCC1CC2C(C)(C)CCNC(=O)CCC(C)C)C(=O)O (stereo not drawn)
quantity.name: pKi
readout.number: 4.92

compound: C[C@]12CCc3c(sc4cc(O)ccc34)[C@@H]1CC[C@H]2O
quantity.name: pKi
readout.number: 7.64

compound: Oc1ccc(-c2ccc3cc(O)ccc3n2)cc1
quantity.name: pKi
readout.number: 6.51

compound: CC[C@H](C)[C@H](NC(=O)[C@H](CCCCN)NC(=O)[C@H](Cc1c[nH]cn1)NC(=O)[C@H](CCCNC(=N)N)NC(=O)[C@H](CCC(=O)O)NC(=O)[C@@H](NC(=O)[C@@H](N)CC(C)C)[C@@H](C)O)C(=O)N[C@@H](CC(C)C)C(=O)N[C@@H](Cc1c[nH]cn1)C(=O)N[C@@H](CCCNC(=N)N)C(=O)N[C@@H](CC(C)C)C(=O)N[C@@H](CC(C)C)C(=O)N[C@@H](CCC(N)=O)C(=O)N[C@@H](CCC(=O)O)C(=O)NCC(=O)N[C@@H](CO)C(=O)N1CCC[C@H]1C(=O)N[C@@H](CO)C(=O)N[C@@H](CC(=O)O)C(=O)O
quantity.name: pKi
readout.number: 6.72

compound: C#C[C@]1(O)CC[C@H]2[C@@H]3CCC4=CC(=O)CCC4=C3[C@@H](c3ccc(N(C)CCNC(=O)N(C)C4CC[C@@]5(C)[C@@H](C4)C[C@@H](O)[C@@H]4[C@@H]5C[C@H](O)[C@]5(C)[C@@H]([C@H](C)CCC(=O)O)CC[C@@H]45)cc3)C[C@@]21C (stereo partly drawn)
quantity.name: pKi
readout.number: 6.85

A. C[C@]12CC[C@@H]3c4ccc(O)cc4CC[C@H]3[C@@H]1CC[C@@]2(O)C#Cc1c(-c2ccccc2O)[nH]c2ccccc12
B. Oc1ccc([C@H]2Oc3cc(O)ccc3[C@H]3CCC[C@H]32)cc1
In terms of reported pKi, does A or B have the smaller number? Answer by stating the label of the chosen item.
A
